Please provide measured z-score for the entries that follow.
test: P. aeruginosa biofilm formation inhibitors, primary screen, PAO1 strain, BacTiter-Glo luminescence, LB-PBS (AID 1144); details: 12 h, higher = more signal
Number only, no unit.

GET /values?readout=z-score&item= CCCCCCc1nc(-c2ccc(OC)nc2)c(C)c2c1[Si](C(C)C)(C(C)C)OC2 -1.13

GET /values?readout=z-score&item= Cc1ccc(S[C@]2(C(=O)NCc3ccccc3)CC(=O)N(Cc3ccccc3Cl)[C@@H]2c2ccc(CO)cc2)cc1 -0.491

GET /values?readout=z-score&item= CC(C)N1C(=O)[C@@]2(Cc3ccccc31)c1ccccc1C(=O)N(Cc1ccccc1)[C@H]2c1ccc(CO)cc1 0.0609

GET /values?readout=z-score&item= CCOC(=O)C[C@H]1[C@H](OC(=O)c2cc3ccccc3oc2=O)[C@@H](NC(=O)Cc2ccc(OC)cc2)c2cc(OCCCO)ccc2N1C(=O)Cc1ccc(OC)cc1 -0.783

GET /values?readout=z-score&item= [N-]=[N+]=Nc1ccccc1C[C@]1(C(=O)N2CCCCC2)N=C(c2ccc(OCCCO)cc2)O[C@H]1c1ccccc1 0.0619
